target: isolated recombinant JAK1 kinase domain (Homo sapiens (Human), UniProt P23458); assay: JAK1 enzyme assay (Caliper LabChip, Ki); assay type: biochemical; details: read-out: JAK1 Ki
Sequence (P23458 875-1153): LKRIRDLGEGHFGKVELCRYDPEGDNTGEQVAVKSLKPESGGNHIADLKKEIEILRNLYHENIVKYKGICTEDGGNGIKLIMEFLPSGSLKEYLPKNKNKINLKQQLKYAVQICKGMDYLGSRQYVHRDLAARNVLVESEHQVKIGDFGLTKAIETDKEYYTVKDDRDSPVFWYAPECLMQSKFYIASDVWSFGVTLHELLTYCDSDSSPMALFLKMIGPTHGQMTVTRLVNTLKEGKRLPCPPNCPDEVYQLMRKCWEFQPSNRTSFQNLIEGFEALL
Please assign NO whenever Ki is at or above 1 nM, and YES whenever it is below.

Query: Field: below-cutoff. Rule: recorded Ki strictly less than 1 nM. Subject: "N#CCC1(n2cc(C(N)=O)c(NC(=O)C3CC3)n2)CCN(Cc2ccc(-c3csc(Cl)c3)nc2)CC1"
Response: YES

Query: And for "N#CCC1(n2cc(C(N)=O)c(NC(=O)C3CC3)n2)CCN(Cc2ccc(-c3cccc(F)c3)cc2)CC1" ?
Response: YES

Query: Now consider C#Cc1ccc(NC2CCC(CC#N)(n3cc(C(N)=O)c(NC(=O)C4CC4)n3)CC2)cc1 (stereo not shown) .
Response: NO

Query: Now this one: COC(=O)Nc1nn(C2(CC#N)CCN(Cc3cc(O)cc(F)c3)CC2F)cc1C(N)=O (stereo not shown)
Response: YES

Query: Also need "N#CC[C@]1(n2cc(C(N)=O)c(NC(=O)C3CC3)n2)CCN(Cc2ccccc2)C[C@@H]1F" , thanks.
Response: NO

Query: # repeat for "CCc1ccc(-c2ccc(CN3CCC(CC#N)(n4cc(C(N)=O)c(NC(=O)C5CC5)n4)CC3)cc2O)cc1"
Response: YES

Query: Also check "N#CCC1(n2cc(C(N)=O)c(NC(=O)C3CC3)n2)CCN(Cc2cccc(OC(F)F)c2)CC1"
Response: NO
